test system: MALME-3M melanoma; experiment: NCI tumour cell line growth inhibition, 48 h
List of TGI values.

Field: example entries. Status: answers known.
Cc1c2oc3c(C)cnc(C(=O)NC4C(=O)NC(C(C)C)C(=O)N5CCCC5C(=O)N(C)CC(=O)N(C)C(C(C)C)C(=O)OC4C)c3nc-2c(C(=O)NC2C(=O)NC(C(C)C)C(=O)N3CCCC3C(=O)N(C)CC(=O)N(C)C(C(C)C)C(=O)OC2C)c(N)c1=O (centres undefined): 16.6 µM
C[C@@H](Oc1ccc(Oc2cnc3ccc(Cl)cc3n2)cc1)C(=O)O: > 100 µM
CCC(C)C(=O)O[C@H]1C(=O)O[C@@H]2C[C@H]3C(C)=CC(=O)[C@@H](O)[C@]3(C)[C@H]3[C@@H](O)[C@H](O)[C@@]4(C)OC[C@]32[C@@H]14 (some centres undefined): < 0.024 µM
O=C1CC(C(=O)O)Cc2c(Br)ccc(O)c21 (centres undefined): > 100 µM
COC(=O)C1CC(c2ccc(Cl)cc2)=NO1 (centres undefined): > 100 µM
NC1=NCC(CN2CCCCC2)O1 (centres undefined): > 100 µM
CN1C(=S)CSc2ccccc21: > 100 µM
Cc1cc(N(CCC#N)CCC#N)ccc1/C=C1N=C(/C=C/c2ccccc2)N(c2ccc(S(N)(=O)=O)cc2)C\1=O: > 100 µM

We now examine a further compound.
Enquiry: Output TGI of N#CC(c1ccccc1)N(CCc1ccccc1)C(=O)c1ccc(C(=O)N(CCc2ccccc2)C(C#N)c2ccccc2)cc1 (centres undefined)
Return: 39.3 µM

###

system: CCRF-CEM leukemia; experiment: NCI tumour cell line growth inhibition, 48 h
# TGI values compiled below
Report the figure in µM without appending any unit label.

Cc1c2oc3c(C)cnc(C(=O)NC4C(=O)NC(C(C)C)C(=O)N5CCCC5C(=O)N(C)CC(=O)N(C)C(C(C)C)C(=O)OC4C)c3nc-2c(C(=O)NC2C(=O)NC(C(C)C)C(=O)N3CCCC3C(=O)N(C)CC(=O)N(C)C(C(C)C)C(=O)OC2C)c(N)c1=O (stereo not given): 5.44

Enquiry: Note TGI for the compound shown: CC(=O)OC1CC2C(C)(C)CCC[C@]2(C)C2=C1C(O)=C(C(C)C)C(=O)C2=O (stereo not given in full)
Return: 7.03

###

system: A498 renal; test: NCI tumour cell line growth inhibition, 48 h
Measurement Type: TGI (µM)
Quick reminder: number only, in µM, skip the unit.

Would you please look over these solved cases?
CSC1=C(SC)C(=O)c2cn(C)c(=O)cc2C1=O: 28.4
Clc1ccc(OCc2nnc3sc(SSc4nn5c(COc6ccc(Cl)cc6)nnc5s4)nn23)cc1: 86
CCCCOC(=O)/C=C\C(=O)NC(N)=O: 78.1

Now for the compound whose TGI we want.
Enquiry: Note down TGI recorded for CC(=O)c1cc2c(s1)C(=O)c1ccsc1C2=O
Return: 12.6

###

system: SW-620 colon; assay: NCI tumour cell line growth inhibition, 48 h
Measurement Type: GI50

CC(C)C(=O)Nc1ccc(-c2nc(-c3cccc(OCCN4CCOCC4)c3)c(-c3ccnc(Br)c3)[nH]2)cc1: 2.87 µM

Enquiry: Determine its reported GI50: Cc1cc(O[C@@H]2O[C@@H](C)[C@H](O)[C@@H](O)[C@H]2O)c2c3c(c(O[C@@H]4O[C@@H](C)[C@H](O)[C@@H](O)[C@H]4O)cc2c1)C(=O)c1c(O)cccc1C3=O
Return: > 30 µM

Enquiry: Please give the documented GI50 of COc1ccc(C2=NN(C=O)C(c3ccc(OS(=O)(=O)c4ccc(C)cc4)c(OC)c3)C2)cc1 (stereo not given)
Return: 5.31 µM

Enquiry: Quick one: give measured GI50 for COc1ccc(/C(=C/c2ccc3ccccc3c2)c2nn[nH]n2)cc1OC
Return: 1.36 µM

Enquiry: // Input: O=c1c2cccc(F)c2sc2c(NCCCNCCO)nc3ccccc3c12 . Output its GI50 only.
Return: 1.22 µM

Enquiry: Give the value of GI50 reported for the following: Cc1cc(I)cc(CNCCN2CCOCC2)c1O
Return: > 100 µM

Reference source for all entries: PubChem BioAssay (NCI)
